Data credit: patent US20260209260A1

Task for the reader: assign each of the following molecules its reported τ1 emission lifetime.
assay-details: Emission lifetime measurement
Type: physicochemical
Unit ns implied. Number only.

Would you mind telling me what τ1 emission lifetime value was observed for CC(C)=CCC/C(C)=C/CC/C(C)=C/CSc1ccccc1C(=O)NCCCn1cc[n+]2[c]1[Ir-3]13([c]4cc(C)ccc4-c4cccc[n+]41)([c]1cc(C)ccc1-c1cccc[n+]13)[n+]1ccccc1-2.F[P-](F)(F)(F)(F)F ?
167

Would you mind telling me what τ1 emission lifetime value was observed for COC(=O)c1ccc2[n+](c1)[Ir-3]13([c]4ccccc4-2)([c]2ccccc2-c2ccc(C(=O)OC)c[n+]21)[c]1n(CCCNC(=O)CCCC[C@@H]2SC[C@@H]4NC(=O)N[C@@H]42)cc[n+]1-c1cccc[n+]13.F[P-](F)(F)(F)(F)F ?
224

Would you mind telling me what τ1 emission lifetime value was observed for F[P-](F)(F)(F)(F)F.O=C(NCCCn1cc[n+]2[c]1[Ir-3]13([c]4ccccc4-c4ccc5ccccc5[n+]41)([c]1ccccc1-c1ccc4ccccc4[n+]13)[n+]1ccccc1-2)[c-]1cccc1.[Fe+2].c1cc[cH-]c1 ?
214

Would you mind telling me what τ1 emission lifetime value was observed for F[P-](F)(F)(F)(F)F.O=C(O)CC[C@H](NC(=O)N[C@@H](CCCCNC(=O)CCn1cc[n+]2[c]1[Ir-3]13([c]4ccccc4-c4sc5ccccc5[n+]41)([c]1ccccc1-c1sc4ccccc4[n+]13)[n+]1ccccc1-2)C(=O)O)C(=O)O ?
649

Would you mind telling me what τ1 emission lifetime value was observed for F[P-](F)(F)(F)(F)F.O=C(NCCCn1cc[n+]2[c]1[Ir-3]13([c]4cc(F)cc(F)c4-c4cccc[n+]41)([c]1cc(F)cc(F)c1-c1cccc[n+]13)[n+]1ccccc1-2)[c-]1cccc1.[Fe+2].c1cc[cH-]c1 ?
191

Would you mind telling me what τ1 emission lifetime value was observed for Cc1ccc2[c](c1)[Ir-3]13([c]4cc(C)ccc4-c4cccc[n+]41)([c]1n(CCC(=O)NCCCC[C@H](NC(=O)N[C@@H](CCC(=O)O)C(=O)O)C(=O)O)cc[n+]1-c1cccc[n+]13)[n+]1ccccc1-2.F[P-](F)(F)(F)(F)F ?
194

Would you mind telling me what τ1 emission lifetime value was observed for Cc1ccc2[c](c1)[Ir-3]13([c]4cc(C)ccc4-c4cccc[n+]41)([c]1n(CCCNC(=O)CCCC[C@@H]4SC[C@@H]5NC(=O)N[C@@H]54)cc[n+]1-c1cccc[n+]13)[n+]1ccccc1-2.F[P-](F)(F)(F)(F)F ?
177

Would you mind telling me what τ1 emission lifetime value was observed for COC(=O)c1ccc2[n+](c1)[Ir-3]13([c]4ccccc4-2)([c]2ccccc2-c2ccc(C(=O)OC)c[n+]21)[c]1n(CCCNC(=O)c2ccccc2SC/C=C(\C)CC/C=C(\C)CCC=C(C)C)cc[n+]1-c1cccc[n+]13.F[P-](F)(F)(F)(F)F ?
182
